Each entry below lists one item and its recorded melting point value.

Look over these answered cases.
Compound | Quantity measured | Measured result
Cl.Cl.O=C(c1cc(C(F)(F)F)cc(C(F)(F)F)c1)N1CCN(CCN2CCC(F)(F)CC2)C[C@H]1Cc1ccc(F)cc1 | melting point | 264 to 270.6 °C
C[C@@H]1CN(CCN2CCN(C(=O)c3cc(C(F)(F)F)cc(C(F)(F)F)c3)[C@H](Cc3ccc(Cl)cc3)C2)C[C@H](C)O1.Cl.Cl | melting point | 150 to 175 °C (dec.)
Cc1ccc(CC2CN(CCN3C[C@H]4C[C@H]3C(C)(C)O4)CCN2C(=O)c2cc(C(F)(F)F)cc(C(F)(F)F)c2)cc1O.Cl.Cl (some centres unmarked) | melting point | 173 to 185 °C
COC[C@H]1CN(CCN2CCN(C(=O)c3cc(C(F)(F)F)cc(C(F)(F)F)c3)[C@H](Cc3ccc(Cl)c(O)c3)C2)CCO1.Cl.Cl | melting point | 204 to 214 °C

--- query ---
Enquiry: Entry Cl.Cl.Cl.Cl.O=C(c1cc(-c2ccncc2)cc(C(F)(F)F)c1)N1CCN(CCN2CCc3ncccc3C2)C[C@H]1Cc1ccc(C(F)(F)F)cc1 has what melting point?
Return: 205 to 218 °C
